Test: Effect of food study: plasma pharmacokinetics fasted vs high-fat breakfast
Type: in vivo, humans
Conditions: male, human, plasma, oral, 100 mg, 100 mg eplerenone capsule; High Fat Breakfast; 28.0 hours after dosing
Experimental: An open-label randomized, cross-over study was employed to evaluate the pharmacokinetic profiles of eplerenone under fasted and fed conditions, and the safety and tolerability of eplerenone. Safety was assessed based on adverse events, vital signs and clinical laboratory tests. Twelve healthy male subjects were randomized to receive a single 100 mg dose of eplerenone on days 1 and 8 under (i) fasted conditions, or (ii) immediately following a high-fat breakfast. […]
READOUT NAME: concentration at 28 h (µg/mL)
Use µg/mL as the unit, but write only the number.

Give the measured concentration at 28 h for COC(=O)C1CC2=CC(=O)CCC2(C)C23OC2CC2(C)C(CC[C@@]24CCC(=O)O4)C13 (stereo partly shown) 0.0217

* * *

Experiment: Multiple dose study: plasma pharmacokinetics and urinary excretion
Type: in vivo, humans
Details: male, human, plasma, oral, 1000 mg, eplerenone 1000 mg Dose; Single Dose
READOUT NAME: Cmax (ng/mL)
Please respond with the number in ng/mL and leave the unit unwritten.

Specify reported Cmax for the molecule shown: COC(=O)C1CC2=CC(=O)CCC2(C)C23OC2CC2(C)C(CC[C@@]24CCC(=O)O4)C13 (stereo partly shown) 6880

* * *

Assay: Effect of food study: plasma pharmacokinetics fasted vs high-fat breakfast
Assay type: in vivo, humans
Conditions: male, human, plasma, oral, 100 mg, 100 mg eplerenone capsule; High Fat Breakfast; 6.0 hours after dosing
READOUT NAME: concentration at 6 h (ng/mL)
Form entry: value (ng/mL) — number only.

Output concentration at 6 h of COC(=O)C1CC2=CC(=O)CCC2(C)C23OC2CC2(C)C(CC[C@@]24CCC(=O)O4)C13 (stereo partly shown) 946

* * *

Experiment: Single dose study: plasma pharmacokinetics of eplerenone, open lactone ring form, spironolactone
Conditions: male, human, plasma, po, 1000 mg
Procedure: The pharmacokinetics, safety and antialdosterone activity of single 10, 50, 100, 300 and 1000 mg oral doses of eplerenone were evaluated in a single-center, randomized, double-blind, placebo-controlled study. The study employed seven parallel dose groups of eight healthy male humans. The eplerenone capsules administered corresponded to the capsules (or combinations of the capsules) disclosed in Examples 4, 5, 7 and 8 above. The placebo was a conventional capsule containing lactose. […]
READOUT NAME: concentration at 28 h

Answer with reported concentration at 28 h of COC(=O)C1CC2=CC(=O)CCC2(C)C23OC2CC2(C)C(CC[C@@]24CCC(=O)O4)C13 (stereo partly shown) 107 ng/mL

* * *

Test: Single dose study: plasma pharmacokinetics of eplerenone, open lactone ring form, spironolactone
Settings: male, human, plasma, po, 100 mg
READOUT NAME: concentration at 48 h
Numeric answer plus unit only.

Identify concentration at 48 h associated with the molecule COC(=O)C1CC2=CC(=O)CCC2(C)C23OC2CC2(C)C(CC[C@@]24CCC(=O)O4)C13 (stereo partly shown) [eplerenone] 0 ng/mL

* * *

Assay: Effect of food study: plasma pharmacokinetics fasted vs high-fat breakfast
Format: in vivo, humans
Details: male, human, plasma, oral, 100 mg, 100 mg eplerenone capsule; High Fat Breakfast; […] after dosing
READOUT NAME: concentration at 24 h (µg/mL)
Number in µg/mL, nothing else.

Retrieve concentration at 24 h measured for COC(=O)C1CC2=CC(=O)CCC2(C)C23OC2CC2(C)C(CC[C@@]24CCC(=O)O4)C13 (stereo partly shown) [eplerenone] and print it. 0.039

The reported numbers originate from patent US6410054B1.
